Hey, just so you know, these numbers are from patent US12226412B2.

Test system: induction of TAT by dexamethasone in HepG2 cells
Experiment: HepG2 tyrosine aminotransferase (TAT) assay
Type: cell-based, human
Settings: HepG2 cells, challenge of 100 nM dexamethasone; Ki from IC50 by Cheng and Prusoff equation
Catalogue of Ki readings, one per entry.

Given the compound Cc1ccnc(C(=O)[C@]23Cc4cnn(-c5ccc(F)cc5)c4C=C2CCN(S(=O)(=O)c2cn[nH]c2C)C3)c1 [Example 11BD] , what is its reported Ki?
20 to 100 nM

Given the compound Cn1nncc1S(=O)(=O)N1CCC2=Cc3c(cnn3-c3ccc(F)cc3)C[C@]2(C(=O)c2cc(C(F)(F)F)ccn2)C1 [Example 11CF] , what is its reported Ki?
20 to 100 nM

Given the compound O=C(c1nccs1)[C@]12Cc3cnn(-c4ccc(F)cc4)c3C=C1CCN(S(=O)(=O)CC1CCCO1)C2 (mixture of isomers) , what is its reported Ki?
≥ 100 nM

Given the compound CCCn1cc(S(=O)(=O)N2CCC3=Cc4c(cnn4-c4ccc(F)cc4)C[C@]3(C(=O)c3ccccn3)C2)cn1 [Example 11CA] , what is its reported Ki?
< 20 nM

Given the compound CC(C)n1cc(S(=O)(=O)N2CCC3=Cc4c(cnn4-c4ccc(F)cc4)C[C@]3(C(=O)c3ccccn3)C2)nn1 [Example 11CV] , what is its reported Ki?
20 to 100 nM

Given the compound Cc1ccnc(C(=O)[C@]23Cc4cnn(-c5ccc(F)cc5)c4C=C2CCN(S(=O)(=O)c2cccc(C(=O)O)c2)C3)c1 [Example 11AW] , what is its reported Ki?
≥ 100 nM

----------
Molecular target: human recombinant GR (Homo sapiens, UniProt P04150)
Construct: purchased PanVera P2812
Sequence (P04150 1-777): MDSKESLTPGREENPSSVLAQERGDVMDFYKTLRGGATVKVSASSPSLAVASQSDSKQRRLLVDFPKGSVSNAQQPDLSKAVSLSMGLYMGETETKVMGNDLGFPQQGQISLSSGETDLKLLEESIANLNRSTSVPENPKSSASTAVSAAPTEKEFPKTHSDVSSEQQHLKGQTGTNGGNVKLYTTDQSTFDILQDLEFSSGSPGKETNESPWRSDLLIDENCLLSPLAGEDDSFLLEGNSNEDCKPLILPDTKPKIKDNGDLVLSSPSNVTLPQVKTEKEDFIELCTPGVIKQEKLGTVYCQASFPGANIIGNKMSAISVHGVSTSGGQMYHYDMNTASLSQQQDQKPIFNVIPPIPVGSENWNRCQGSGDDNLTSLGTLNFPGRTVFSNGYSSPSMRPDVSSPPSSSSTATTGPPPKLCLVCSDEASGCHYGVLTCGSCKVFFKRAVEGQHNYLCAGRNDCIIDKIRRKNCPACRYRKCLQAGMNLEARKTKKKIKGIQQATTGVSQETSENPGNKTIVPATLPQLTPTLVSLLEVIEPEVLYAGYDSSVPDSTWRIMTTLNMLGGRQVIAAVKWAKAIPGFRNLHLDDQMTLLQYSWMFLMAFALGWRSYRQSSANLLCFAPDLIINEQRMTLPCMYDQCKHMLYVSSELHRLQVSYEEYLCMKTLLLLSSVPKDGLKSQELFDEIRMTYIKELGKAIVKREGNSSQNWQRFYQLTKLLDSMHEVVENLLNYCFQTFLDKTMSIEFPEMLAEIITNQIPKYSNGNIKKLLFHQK
Test: Human glucocorticoid receptor (GR) fluorescence polarisation (FP) binding assay
Settings: human recombinant GR, fluorescence polarisation binding assay; read-out: GR binding
pKi: −log10 of the molar value.
Catalogue of pKi readings, one per entry.

O=C(c1nccs1)[C@]12Cc3cnn(-c4ccc(F)cc4)c3C=C1CCN(S(=O)(=O)c1cc(F)c(F)c(F)c1)C2 [Example 12J] :: > 9.30
CCn1cc(S(=O)(=O)N2CCC3=Cc4c(cnn4-c4ccc(F)cc4)C[C@]3(C(=O)c3cc(C(F)(F)F)ccn3)C2)cn1 [Example 15] :: > 9.30
CCc1ccnc(C(=O)[C@]23Cc4cnn(-c5ccc(F)cc5)c4C=C2CCN(S(=O)(=O)c2cccc(C(F)(F)F)n2)C3)c1 [Example 11AV] :: > 9.30
CCn1cc(S(=O)(=O)N2CCC3=Cc4c(cnn4-c4ccc(F)cc4)C[C@]3(C(=O)c3ccccn3)C2)cn1 [Example 11AY] :: > 9.30
CCc1ccnc(C(=O)[C@]23Cc4cnn(-c5ccc(F)cc5)c4C=C2CCN(S(=O)(=O)c2cc(F)c(F)c(F)c2)C3)c1 [Example 1L] :: > 9.30

Next, consider the following compound.
Given the compound CN1CCOc2cc(S(=O)(=O)N3CCC4=Cc5c(cnn5-c5ccc(F)cc5)C[C@]4(C(=O)c4ccccn4)C3)cnc21 [Example 11AB] , what is its reported pKi?
> 9.30
